# assay.details: restored growth of temperature-sensitive Mot1-301 yeast – S. cerevisiae, ATP luminescence, 38.5C, SUMOylation pathway inhibitor project, primary screen (AID 2716);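 further: OY570 slx delta 5 strain wells were the positive control but not used for scaling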
# experimental.parameters: S. cerevisiae Mot1-301 growth rescue, at 18.8 µM, percent above DMSO median, 100 means doubled
The whole screen tested about 320,000 compounds, of which about 3,300 (1%) were called active.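 How the source made its calls: active means every valid replicate shows activation above 250% relative to neutral control wells; inactive means the rest, any valid replicate at or below 250%.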 Many of the other results were omitted from the sample, so actives are more common in it than they were.
The reply should be one of these categories: class 1 = active, class 0 = inactive

What did the test return for Cn1cncc1C#Cc1c(-c2ccsc2)sc2ccccc12 ?
class 0

What did the test return for Cc1c(NC(=O)c2c([N+](=O)[O-])cnn2C)c(=O)n(-c2ccccc2)n1C ?
class 0

What did the test return for COC(=O)C1[C@H]2SC(C)(C)C(C(=O)OC)N2C(=O)N1Cc1nc2ccccc2s1 (stereo partly specified) ?
class 0

What did the test return for CC1CN(C(=S)Nc2cccc(F)c2)CC(C)O1 (stereo unspecified) ?
class 0

What did the test return for CCOc1cc2[nH]c(=S)n(Cc3ccc(C(=O)N4CCN(C)CC4)cc3)c(=O)c2cc1OCC ?
class 0

What did the test return for CC(NC(=O)c1ccc(Cl)cc1)C(=O)N1CCCCC1 (stereo unspecified) ?
class 1

What did the test return for Cc1ccc(-c2cn3cc([N+](=O)[O-])ccc3n2)cc1 ?
class 0

What did the test return for CCC(C)(C)NC(=O)C(c1ccc(OC)cc1)N(C(=O)CCC(=O)Nc1cc(C)on1)c1ccc(OC)cc1OC (stereo unspecified) ?
class 0

What did the test return for COC(=O)CCCC1=CC2=CC(=O)C(C)(OC(=O)c3cccs3)C(=O)C2=CN1CC1CC1 (stereo unspecified) ?
class 0

What did the test return for O=S(=O)(c1ccc(SCc2ccc(Br)cc2)nc1)N1CCOCC1 ?
class 0

What did the test return for Cc1cn(C2C=CC(CO)O2)c(=O)[nH]c1=O (stereo unspecified) ?
class 0

What did the test return for CC(=O)Nc1ccc(/C(C)=N/NC(=O)CN(c2ccccc2Br)S(C)(=O)=O)cc1 ?
class 0

What did the test return for Cc1ccc(C(C(=O)NC2CCCCC2)N(C(=O)c2csnn2)C2CC2)o1 (stereo unspecified) ?
class 0

What did the test return for Cc1cccc(NC(=O)CCn2c(=O)oc3ccccc32)c1 ?
class 0

What did the test return for COC(=O)CCCC1=CC2=CC(=O)C(C)(OC(=O)c3cccs3)C(=O)C2=CN1CC(C)C (stereo unspecified) ?
class 0

What did the test return for CN(NC(=O)c1ccccc1F)c1nc(C(F)(F)F)nc2ccccc12 ?
class 1

What did the test return for CCN(CC)c1ccc(NC(=O)C2CCC(CNc3c(N4CCCC4)c(=O)c3=O)CC2)c(C)c1 (stereo unspecified) ?
class 0

What did the test return for Cc1ccc2nc(-c3ccc(Br)cc3)cn2c1 ?
class 0

What did the test return for CC1(C)S[C@@H]2[C@H](NC(=O)COc3ccccc3)C(=O)N2C1C(=O)OCc1ccccc1 (stereo partly specified) ?
class 1

What did the test return for Cc1ccc(-c2cn3cc(C)ccc3n2)cc1 ?
class 1

What did the test return for Nc1c(N(CCCO)C(=O)C2CCCC2)c(=O)[nH]c(=O)n1Cc1ccccc1 ?
class 0

The reported numbers originate from PubChem BioAssay AID2716.
